This section presents compounds with their documented melting point values.

Record excerpt, results attached:
1) O=C(CCCCOc1ccccc1)C(F)(F)F [Compound 23.12, 1,1,1-Trifluoro-6-phenoxy-2-hexanone] ... 50 to 51 °C
2) O=C(CCCCOc1ccc(O)cc1)C(F)(F)F [Compound 24.2] ... 63 to 64 °C

API: the following record is the query input.
Task item: I am curious: what melting point value has been reported for O=C(CCCCCOc1ccccc1OCc1ccccc1)C(F)(F)F [Compound 23.10] ?
Reply: 31 to 32 °C

----------
target_of_assay: fatty acid amide hydrolase (FAAH) (Rattus norvegicus (Rat))
measurement_description: FAAH enzyme assay: inhibition of anandamide (AEA) hydrolysis, arachidonic acid quantified by HPLC
Assay type: biochemical
conditions: eight-point assay; calculated with Prizm software; read-out: Ki
endpoint_label: Ki (nM)
Answer in nM, number only, no unit symbol.

Completed entries (count: 2):
1) O=C(CCCOc1ccc(O)cc1)C(F)(F)F [Compound 24.1] ... 1700
2) O=C(CCCCOc1ccccc1O)C(F)(F)F [Compound 24.9] ... 1600

Task item: Given the molecule O=S(=O)(F)CCCCCc1ccc(OCc2ccccc2)cc1 [Compound 13.4] , what is its reported Ki?
Reply: 15

Task item: For O=S(=O)(F)CCCCCCCc1ccccc1O [Compound 14.3] then?
Reply: 13

Task item: Another molecule to check: O=S(=O)(F)CCCCOc1ccccc1 [Compound 17, 4-Phenoxybutylsulfonyl fluoride]
Reply: 53

----------
target_of_assay: fatty acid amide hydrolase (FAAH) (Rattus norvegicus (Rat), UniProt P97612)
Sequence (P97612 whole entry): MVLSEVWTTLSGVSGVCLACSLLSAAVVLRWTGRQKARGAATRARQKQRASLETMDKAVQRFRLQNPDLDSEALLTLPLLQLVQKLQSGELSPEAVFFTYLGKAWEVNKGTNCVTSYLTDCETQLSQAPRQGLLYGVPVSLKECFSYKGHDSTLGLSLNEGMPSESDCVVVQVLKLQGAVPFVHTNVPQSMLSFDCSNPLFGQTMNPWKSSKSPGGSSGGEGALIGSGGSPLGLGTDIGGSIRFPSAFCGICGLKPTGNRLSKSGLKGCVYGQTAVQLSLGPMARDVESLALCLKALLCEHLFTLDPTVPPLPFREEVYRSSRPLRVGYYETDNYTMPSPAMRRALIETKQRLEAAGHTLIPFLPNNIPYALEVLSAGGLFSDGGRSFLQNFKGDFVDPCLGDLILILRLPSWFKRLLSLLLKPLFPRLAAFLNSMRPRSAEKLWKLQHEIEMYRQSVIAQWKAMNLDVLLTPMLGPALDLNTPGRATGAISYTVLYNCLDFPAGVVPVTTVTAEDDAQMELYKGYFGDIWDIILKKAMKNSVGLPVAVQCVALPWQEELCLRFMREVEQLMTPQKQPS
measurement_description: FAAH enzyme assay: inhibition of anandamide (AEA) hydrolysis, arachidonic acid quantified by HPLC
Type: biochemical
conditions: one-point assay, inhibitor 100 μM; partially purified rat brain FAAH, 15 min; read-out: % Inhibition (Concentration)
endpoint_label: inhibition at 100 µM (%)
The reply should contain only the number, in %.

Some entries whose results are on file:
1) O=C(CCCOc1ccccc1O)C(F)(F)F ... 43
2) O=C(CCCOc1ccc(OCc2ccccc2)cc1)C(F)(F)F ... 96
3) O=C(NCc1ccc(Br)cc1)OCc1ccccc1 ... 89
4) O=C(CCCOc1cccc(OCc2ccccc2)c1)C(F)(F)F ... 93
5) O=C(CCCCOc1ccc(OCc2ccccc2)cc1)C(F)(F)F ... 76
6) O=S(=O)(F)CCCCCCCc1ccc(OCc2ccccc2)cc1 ... 100
7) O=C(Nc1ccc(Br)cc1)OCc1ccccc1 ... 36
8) O=S(=O)(Cl)CCCCCCCc1ccc(OCc2ccccc2)cc1 ... 99

# next compound below
Task item: Suppose we examine the compound O=C(CCCCCc1ccccc1)C(F)(F)F [Compound 27.3, 1,1,1-Trifluoro-7-phenyl-2-heptanone, reference compound] ; what inhibition at 100 µM value has been reported?
Reply: 83

----------
Examples of compounds with documented melting point follow.

Check out these entries, answers already filled in.
1) O=C(CCCCCCOc1ccc(OCc2ccccc2)cc1)C(F)(F)F ... 82 to 83 °C
2) O=C(CCCCOc1ccc(OCc2ccccc2)cc1)C(F)(F)F ... 95.5 to 96 °C
3) O=C(NCCCc1ccccc1)Nc1ccccn1 ... 127 to 128 °C

Task item: I am curious: what melting point value has been reported for O=S(=O)(F)CCCCCc1ccc(OCc2ccccc2)cc1 ?
Reply: 66 to 68 °C

Task item: Entry to check: Oc1cccc(OCCCC(O)(O)C(F)(F)F)c1 (hydrate or solvate)
Reply: 76 to 77 °C

Task item: O=C(CCCOc1ccccc1OCc1ccccc1)C(F)(F)F ?
Reply: 50 to 51 °C

----------
target_of_assay: fatty acid amide hydrolase (FAAH) (Rattus norvegicus (Rat))
measurement_description: FAAH enzyme assay: inhibition of anandamide (AEA) hydrolysis, arachidonic acid quantified by HPLC
Type: biochemical
conditions: eight-point assay; anandamide hydrolysis by FAAH; read-out: IC50
endpoint_label: pIC50
Note on pIC50: it is the negative log10 of concentration, concentration in mol/L.

Consider the worked cases shown below.
1. O=C(CCCCOc1ccc(OCc2ccccc2)cc1)C(F)(F)F [Compound 23.2] ... 4.87
2. Cc1nnc(C(=O)CCCCCCOc2ccc(O)cc2)o1 [Compound 66] ... 7.00
3. O=S(=O)(F)CCCCCCCc1cccc(O)c1 [Compound 14.2] ... 6.95
4. O=S(=O)(F)CCCCCCCc1ccccc1O [Compound 14.3] ... 7.27
5. O=C(CCCCCOc1ccc(O)cc1)C(F)(F)F [Compound 24.3] ... 4.94

Task item: Would you kindly share the measured pIC50 for O=C(c1ccccn1)C(F)(F)CCCCOc1ccccc1 [Compound 89.9] ?
Reply: 7.11

----------
target_of_assay: fatty acid amide hydrolase (FAAH) (Rattus norvegicus (Rat), UniProt P97612)
measurement_description: FAAH enzyme assay: inhibition of anandamide (AEA) hydrolysis, arachidonic acid quantified by HPLC
Assay type: biochemical
conditions: eight-point assay; anandamide hydrolysis by FAAH; read-out: IC50
Recorded IC50, one value per entry.
State the answer as a number, implicitly in µM.

Examples with answers:
1) Cc1nnc(C(=O)C(F)(F)c2ccc(Br)cc2)o1 ... 1.67
2) O=C(CCCCCCOc1ccccc1)c1nnc(COCc2ccccc2)o1 ... 0.025
3) O=C(c1cccnc1)C(F)(F)CCCCOc1cccc(OCc2ccccc2)c1 ... 0.024

Task item: For fatty acid amide hydrolase (FAAH) (Rattus norvegicus (Rat), UniProt P97612), provide IC50 of O=S(=O)(Cl)CCCCCCCc1ccc(OCc2ccccc2)cc1 please.
Reply: 53.8

Task item: Next entry: O=C(CCCOc1ccccc1O)C(F)(F)F
Reply: 138

Task item: Consider next the compound O=C(CCCCOc1cccc(OCc2ccccc2)c1)C(F)(F)F in the same way.
Reply: 6.6

Task item: Moving on to O=C(CCCc1ccccc1)C(F)(F)F
Reply: 69.4

Task item: Please answer likewise for Cc1nnc(C(=O)CCCCCCOc2ccc(OCc3ccccc3)cc2)o1
Reply: 0.12

Task item: // next record O=C(CCCCCOc1cccc(OCc2ccccc2)c1)C(F)(F)F
Reply: 0.47

Task item: Next: O=C(c1cccnc1)C(F)(F)CCCCOc1ccccc1
Reply: 0.164

Task item: How about Cc1nnc(C(=O)C(F)(F)CCCCOc2ccccc2)o1 ?
Reply: 0.31

Task item: Let us now turn to O=C(CCCCOc1ccccc1)C(F)(F)F
Reply: 25.4

Task item: Further, for Oc1cccc(OCCCC(O)(O)C(F)(F)F)c1 ?
Reply: 22.8

Task item: Queued: O=C(CCCCCOc1ccccc1O)C(F)(F)F
Reply: 26.2

Task item: Input CCOC(=O)C(=O)c1ccc(-c2ccccc2)cc1 [Compound 91.1, Ethyl 2-(biphenyl-4-yl)-2-oxoacetate]
Reply: 15

Task item: What do you have for O=C(CCCCCCOc1ccc(OCc2ccccc2)cc1)C(F)(F)F ?
Reply: 11.8

Task item: Another compound to look at: O=C(CCCCCc1ccccc1)C(F)(F)F [Compound 27.3, 1,1,1-Trifluoro-7-phenyl-2-heptanone, reference compound]
Reply: 11.1

Task item: And the next one, O=C(CCCCOc1ccc(O)cc1)C(F)(F)F ?
Reply: 23.2

----------
target_of_assay: fatty acid amide hydrolase (FAAH) (Rattus norvegicus (Rat))
measurement_description: FAAH enzyme assay: inhibition of anandamide (AEA) hydrolysis, arachidonic acid quantified by HPLC
Assay type: biochemical
endpoint_label: pKi
Note: pKi values are expressed as the negative base-10 logarithm of concentration in M.

Task item: Which pKi value belongs to O=S(=O)(F)CCCCCCCc1ccccc1OCc1ccccc1 [Compound 13.3] ?
Reply: 7.34

----------
target_of_assay: fatty acid amide hydrolase (FAAH) (Rattus norvegicus (Rat))
measurement_description: FAAH enzyme assay: inhibition of anandamide (AEA) hydrolysis, arachidonic acid quantified by HPLC
Format: biochemical
Protocol: The resulting supernatant is injected onto the HPLC.
endpoint_label: IC50 (nM)
# value in nM; strip the unit string

Task item: Need IC50, item O=S(=O)(F)CCCCCCCc1ccccc1OCc1ccccc1
Reply: 193

----------
target_of_assay: fatty acid amide hydrolase (FAAH) (Rattus norvegicus (Rat), UniProt P97612)
measurement_description: FAAH enzyme assay: inhibition of anandamide (AEA) hydrolysis, arachidonic acid quantified by HPLC
Type: biochemical
conditions: eight-point assay; calculated with Prizm software; read-out: Ki
endpoint_label: pKi
pKi (log units): -log10 of the concentration in mol/L.

For orientation, consider the following solved cases.
1) CCOC(=O)C(=O)CCCCCOc1ccccc1 [Compound 87.4] ... 7.05
2) COc1ccc(CCCCC(=O)C(F)(F)F)cc1 [Compound 27.4] ... 6.22
3) O=C(CCCCOc1ccc(OCc2ccccc2)cc1)C(F)(F)F [Compound 23.2] ... 5.92
4) O=C(CCCCCCOc1ccc(O)cc1)c1nnc(COCc2ccccc2)o1 [Compound 74.2] ... 8.52
5) O=C(CCCCCCOc1ccccc1)c1nnc(CO)o1 [Compound 74.1] ... 9.00

Task item: Returns the measured pKi for the input compound. Input: Cc1nnc(C(=O)CCCCCCOc2ccc(O)cc2)o1 [Compound 66]
Reply: 8.22

Task item: O=C(CCCCc1ccccc1)C(F)(F)F [Compound 27.2, 1,1,1-Trifluoro-6-phenyl-2-hexanone] , same question.
Reply: 5.68

Task item: Now give it for Cc1nnc(C(=O)CCCCCCOc2ccc(OCc3ccccc3)cc2)o1 [Compound 65.2] too.
Reply: 8.10

Task item: Now the same for CC(=O)C(F)(F)CCCCOc1cccc(OCc2ccccc2)c1 [Compound 89.1]
Reply: 7.10
